quantity kind: melting point

Consider the following illustrative entries.
{"compound": "O=C1c2ccccc2C(=O)c2[nH]ccc21 [Compound 2a, 1H-Benzo[f]indole-4,9-dione]", "melting point": "281 to 283 °C"}
{"compound": "CCc1[nH]c2c(c1CC)C(=O)c1ccccc1C2=O [Compound 2d, 2,3-Diethyl-1H-benzo[f]indole-4,9-dione]", "melting point": "205 to 209 °C"}
{"compound": "CCc1cc2c([nH]1)C(=O)c1ccccc1C2=O [Compound 2c, 2-Ethyl-1H-benzo[f]indole-4,9-dione]", "melting point": "200 to 207 °C"}
{"compound": "CCCc1[nH]c2c(c1C)C(=O)c1ccccc1C2=O [Compound 2f]", "melting point": "266 to 270 °C"}
{"compound": "Cc1c(C(C)C)[nH]c2c1C(=O)c1ccccc1C2=O [Compound 2e]", "melting point": "245 to 248 °C"}

melting point for Cc1cc2c([nH]1)C(=O)c1ccccc1C2=O [Compound 2b, 2-Methyl-1H-benzo[f]indole-4,9-dione] is 302 to 304 °C

Recorded values, source paper PMC6017957.
